- System: β-galactosidase in CMV-LacZ C2C12 myoblasts
- METHOD SUMMARY: CMV-LacZ secondary screen in C2C12 myoblasts (β-Gal stabilizing assay)
- Type: cell-based, mouse
- REPORTED CONDITIONS: 1 uM; SU9516 analogs, C2C12 CMV-LacZ, N=2
Label not satisfied if CMV-LACZ in Myoblasts, value relative to DMSO falls below 1; label satisfied in every other case.

| SMILES ENTRY | ASSIGNED CLASS |
| --- | --- |
| O=Nc1c(-c2c(O)[nH]c3ccccc23)[nH]c2ccccc12 | satisfied |
| COc1ccc(C(=O)/C=C2/C(=O)Nc3ccccc32)cc1OC | not satisfied |
| Cc1ccc2c(c1)/C(=C/c1ccc(F)cc1)C(=O)N2 | not satisfied |
| O=C(O)COc1ccccc1/C=C1\C(=O)Nc2ccc(Br)cc21 | satisfied |

Please examine the following record next.
Q) Please indicate if the recorded CMV-LACZ in Myoblasts, value relative to DMSO for CC(C)Oc1ccc(C(=O)/C=C2/C(=O)Nc3ccccc32)cc1 meets or exceeds 1.
A) not satisfied
